# assay.info: phase 1 single ascending dose study, pharmacokinetics
# Type: in vivo, human
# cond: both sexes, human, plasma, po, 10 mg, 10 mg single oral dose, fasted, n=6; mean (SD); read-out: AUC216h
parameter: AUC(0-t) (ng·h/mL)
Report the value in ng·h/mL with no unit label.

Annotate the compound CC1CCCN1C(=O)c1nc(C(=O)NCC(C)(C)O)sc1-c1ccc(C(O)(C(F)(F)F)C(F)(F)F)c(Cl)c1Cl (stereo not shown) with its measured AUC(0-t).
5180

----------
# target.of.assay: UniProtKB Q96RI1
# Sequence (Q96RI1 whole entry, the tested form may be a part): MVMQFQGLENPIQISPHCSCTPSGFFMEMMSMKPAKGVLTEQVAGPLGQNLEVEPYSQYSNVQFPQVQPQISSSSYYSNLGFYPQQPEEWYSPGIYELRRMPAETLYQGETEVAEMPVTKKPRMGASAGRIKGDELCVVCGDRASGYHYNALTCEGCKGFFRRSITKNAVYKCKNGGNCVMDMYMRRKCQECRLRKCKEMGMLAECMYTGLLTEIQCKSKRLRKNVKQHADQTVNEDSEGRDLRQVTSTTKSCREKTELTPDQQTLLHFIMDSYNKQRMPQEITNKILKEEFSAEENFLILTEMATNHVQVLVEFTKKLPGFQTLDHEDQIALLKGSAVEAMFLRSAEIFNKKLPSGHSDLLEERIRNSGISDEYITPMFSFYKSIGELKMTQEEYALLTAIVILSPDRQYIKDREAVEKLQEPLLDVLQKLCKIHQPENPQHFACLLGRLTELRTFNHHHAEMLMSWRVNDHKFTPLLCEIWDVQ
# assay.info: nuclear receptor cellular GAL4 reporter assay
# cond: agonist and antagonist mode; read-out: potency in agonist and antagonist mode
parameter: IC50

Input CC1CCCN1C(=O)c1nc(C(=O)NCC(C)(C)O)sc1-c1ccc(C(O)(C(F)(F)F)C(F)(F)F)c(Cl)c1Cl (stereo not shown) , output reported IC50.
> 1.5 µM

Source of measurements: paper PMC8155022
